Record: MIC reported on Ser. marcescens ES-75.
All answers are understood in µg/mL, so give the number only.

Below, each entry is followed by its recorded MIC result.
O=C(O)COc1ccc([C@@H](NC(=O)c2coc3cc(O)c(O)cc3c2=O)C(=O)N[C@@H]2C(=O)N3C(C(=O)O)=C(CSc4nnnn4CC(=O)O)CS[C@H]23)cc1	0.2
O=C(O)COc1ccc([C@@H](NC(=O)c2coc3c(O)c(O)ccc3c2=O)C(=O)N[C@@H]2C(=O)N3C(C(=O)O)=C(CSc4nnnn4CC(=O)O)CS[C@H]23)cc1	0.8
Cc1oc2cc(O)c(O)cc2c(=O)c1C(=O)N[C@@H](C(=O)N[C@@H]1C(=O)N2C(C(=O)[O-])=C(C[n+]3ccc(C(=O)O)cc3)CS[C@H]12)c1ccc(OCC(=O)O)cc1	0.4

Given the molecule `CO[C@@]1(NC(=O)[C@H](NC(=O)c2c(C)oc3cc(O)c(O)cc3c2=O)c2ccc(OCC(=O)O)cc2)C(=O)N2C(C(=O)O)=C(CSc3nnnn3CC(=O)O)CS[C@@H]21` and test system Ser. marcescens ES-75, the measured MIC is 0.1

Given the molecule `CC(=O)Oc1cc2oc(C)c(C(=O)N[C@@H](C(=O)N[C@@H]3C(=O)N4C(C(=O)[O-])=C(C[n+]5ccc(C(N)=O)cc5)CS[C@H]34)c3ccc(OCC(=O)O)cc3)c(=O)c2cc1OC(C)=O` and test system Ser. marcescens ES-75, the measured MIC is 0.8

Given the molecule `CO[C@@]1(NC(=O)[C@H](NC(=O)c2coc3cc(O)c(O)cc3c2=O)c2ccc(OCC(=O)O)cc2)C(=O)N2C(C(=O)[O-])=C(C[n+]3ccc(C(N)=O)cc3)CS[C@@H]21` and test system Ser. marcescens ES-75, the measured MIC is 0.8

Given the molecule `CC(=O)Oc1ccc2c(=O)c(C(=O)N[C@@H](C(=O)N[C@@H]3C(=O)N4C(C(=O)O)=C(CSc5nnnn5CC(=O)O)CS[C@H]34)c3ccc(OCC(=O)O)cc3)c(C)oc2c1OC(C)=O` and test system Ser. marcescens ES-75, the measured MIC is 0.8

Given the molecule `CN(C)CCn1nnnc1SCC1=C(C(=O)O)N2C(=O)[C@@H](NC(=O)[C@H](NC(=O)c3coc4cc(O)c(O)cc4c3=O)c3ccc(OCC(=O)O)cc3)[C@H]2SC1` and test system Ser. marcescens ES-75, the measured MIC is 0.2

Given the molecule `O=C(O)COc1ccc([C@@H](NC(=O)c2coc3cc(O)c(O)cc3c2=O)C(=O)N[C@@H]2C(=O)N3C(C(=O)[O-])=C(C[n+]4ccc(CCS(=O)(=O)O)cc4)CS[C@H]23)cc1` and test system Ser. marcescens ES-75, the measured MIC is 0.8

Given the molecule `Cc1oc2cc(O)c(O)cc2c(=O)c1C(=O)N[C@@H](C(=O)N[C@@H]1C(=O)N2C(C(=O)[O-])=C(C[n+]3cccc(CC(=O)O)c3)CS[C@H]12)c1ccc(OCC(=O)O)cc1` and test system Ser. marcescens ES-75, the measured MIC is 0.2

Given the molecule `Cc1oc2cc(O)c(O)cc2c(=O)c1C(=O)N[C@@H](C(=O)N[C@@H]1C(=O)N2C(C(=O)[O-])=C(C[n+]3ccc(C(N)=O)cc3)CS[C@H]12)c1ccc(OCC(=O)O)cc1` and test system Ser. marcescens ES-75, the measured MIC is 0.4

Given the molecule `CO[C@@]1(NC(=O)[C@H](NC(=O)c2c(C)oc3cc(OC(C)=O)c(OC(C)=O)cc3c2=O)c2ccc(OCC(=O)O)cc2)C(=O)N2C(C(=O)O)=C(CSc3nnnn3CC(=O)O)CS[C@@H]21` and test system Ser. marcescens ES-75, the measured MIC is 0.1

Given the molecule `CO[C@@]1(NC(=O)[C@H](NC(=O)c2c(C)oc3cc(O)c(O)cc3c2=O)c2ccc(OCC(=O)O)cc2)C(=O)N2C(C(=O)[O-])=C(C[n+]3ccc(C(N)=O)cc3)CS[C@@H]21` and test system Ser. marcescens ES-75, the measured MIC is 0.8
